Taken from patent US7759345B2.

- System: MEL-28
- Experiment notes: Inhibition of cell growth by counting cells, MEL-28
- Assay type: cell-based, human
- Measurement parameters: Homo sapiens, SK-MEL-28, 72 h; three days of incubation; read-out: IC50 (molar) MEL-28
Reported endpoint: IC50 (nM)

1. CCCCCCCC(=O)Oc1cc2c(cc1OC)[C@@]1(CS[C@@H]3c4c(OC(C)=O)c(C)c5c(c4[C@H](COC1=O)N1C3[C@H]3c4c(cc(C)c(OC)c4O)C[C@@H]([C@@H]1C#N)N3C(=O)OC(C)(C)C)OCO5)NCC2 (stereo partly shown) | 10.2
2. C=CCOc1cc2c(cc1OC)[C@@]1(CS[C@@H]3c4c(O)c(C)c5c(c4[C@H](COC1=O)N1C3[C@H]3c4c(cc(C)c(OC)c4OCC=C)C[C@@H]([C@@H]1C#N)N3C)OCO5)NCC2 (stereo partly shown) | 124
3. CCCCCCCCCCCCCCCC(=O)Oc1cc2c(cc1OC)[C@@]1(CS[C@@H]3c4c(OC(C)=O)c(C)c5c(c4[C@H](COC1=O)N1C3[C@H]3c4c(cc(C)c(OC)c4OC(=O)CCCCCCCCCCCCCCC)C[C@@H]([C@@H]1C#N)N3C(=O)OC(C)(C)C)OCO5)NCC2 (stereo partly shown) | 7500
4. CCCCCCCCCCCCCCCC(=O)Oc1cc2c(cc1OC)[C@@]1(CS[C@@H]3c4c(OC(C)=O)c(C)c5c(c4[C@H](COC1=O)N1C3[C@@H]3N[C@@H](Cc4cc(C)c(OC)c(O)c43)[C@@H]1C#N)OCO5)NCC2 (stereo partly shown) | 5.03

* * *

- Tested on: SK-MEL-28
- Experiment notes: Inhibition of cells growth by colorimetric assay (SRB), SK-MEL-28
- Type: cell-based
- Measurement parameters: Homo sapiens, SK-MEL-28, 48 h, read-out: LC50 MEL-28, MEL-28; SRB, 48 hours exposure
Quick list: CC50 per entry.
Reported endpoint: CC50 (nM)

1. COc1cc2c(cc1O)CCN[C@]21CS[C@@H]2c3c(OC(C)=O)c(C)c4c(c3[C@H](COC1=O)N1C2[C@H]2c3c(cc(C)c(OC)c3OC(C)C)C[C@@H]([C@@H]1C#N)N2C)OCO4 (stereo partly drawn) | 7060
2. COc1cc2c(cc1OC(=O)C(F)(F)C(F)(F)C(F)(F)F)CCN[C@]21CS[C@@H]2c3c(OC(C)=O)c(C)c4c(c3[C@H](COC1=O)N1C2[C@H]2c3c(cc(C)c(OC)c3O)C[C@@H]([C@@H]1O)N2C)OCO4 (stereo partly drawn) | 0.994
3. COc1cc2c(cc1OC(=O)CCc1ccccc1)CCN[C@]21CS[C@@H]2c3c(OC(C)=O)c(C)c4c(c3[C@H](COC1=O)N1C2[C@H]2c3c(cc(C)c(OC)c3O)C[C@@H]([C@@H]1O)N2C)OCO4 (stereo partly drawn) | 7.83
4. COc1cc2c(cc1OC(=O)CCCl)CCN[C@]21CS[C@@H]2c3c(OC(C)=O)c(C)c4c(c3[C@H](COC1=O)N1C2[C@H]2c3c(cc(C)c(OC)c3O)C[C@@H]([C@@H]1O)N2C)OCO4 (stereo partly drawn) | 3.52
5. COc1cc2c(cc1OC(=O)c1cc3ccccc3oc1=O)CCN[C@]21CS[C@@H]2c3c(OC(C)=O)c(C)c4c(c3[C@H](COC1=O)N1C2[C@H]2c3c(cc(C)c(OC)c3O)C[C@@H]([C@@H]1O)N2C)OCO4 (stereo partly drawn) | 8.28
6. COc1cc2c(cc1OC)[C@@]1(CS[C@@H]3c4c(OC(C)=O)c(C)c5c(c4[C@H](COC1=O)N1C3[C@H]3c4c(cc(C)c(OC)c4O)C[C@@H]([C@@H]1O)N3C)OCO5)NCC2 (stereo partly drawn) | 6.24
